The reported measurements were obtained from patent US7598029B2.

# system name: cathepsin D (Homo sapiens, UniProt P07339)
# Construct: purchased R&D Systems Inc
# Sequence (P07339 65-412): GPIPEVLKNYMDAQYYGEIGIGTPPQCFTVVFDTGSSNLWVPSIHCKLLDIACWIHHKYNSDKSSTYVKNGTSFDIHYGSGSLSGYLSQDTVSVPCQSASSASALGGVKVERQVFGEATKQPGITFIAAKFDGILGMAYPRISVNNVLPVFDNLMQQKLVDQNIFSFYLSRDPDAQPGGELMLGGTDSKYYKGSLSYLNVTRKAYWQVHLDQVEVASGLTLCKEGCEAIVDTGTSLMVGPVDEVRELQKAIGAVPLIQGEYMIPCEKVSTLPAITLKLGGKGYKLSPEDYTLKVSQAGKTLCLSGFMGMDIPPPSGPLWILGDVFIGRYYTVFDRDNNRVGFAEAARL
# assay summary: Protease digestion of resistin by cathepsin D with HIV-1 protease inhibitors, SDS-PAGE
# Assay type: biochemical
# condition description: 1 ug alkylated and reduced resistin, 0.1 ug cathepsin D, 24 hr at 37° C.
quantity name: inhibition of cleavage of resistin by cathepsin D

smiles_data=Cc1c(O)cccc1C(=O)N[C@@H](CSc1ccccc1)[C@H](O)CN1C[C@H]2CCCC[C@H]2C[C@H]1C(=O)NC(C)(C)C system_name="cathepsin D (Homo sapiens, UniProt P07339)" reported_measurement=not
smiles_data=CC(C)(C)NC(=O)[C@@H]1CN(Cc2cccnc2)CCN1C[C@@H](O)C[C@@H](Cc1ccccc1)C(=O)N[C@H]1c2ccccc2C[C@H]1O system_name="cathepsin D (Homo sapiens, UniProt P07339)" reported_measurement=not

====

# system name: cathepsin E (Homo sapiens)
# Construct: purchased R&D Systems Inc
# Sequence (P14091 54-396): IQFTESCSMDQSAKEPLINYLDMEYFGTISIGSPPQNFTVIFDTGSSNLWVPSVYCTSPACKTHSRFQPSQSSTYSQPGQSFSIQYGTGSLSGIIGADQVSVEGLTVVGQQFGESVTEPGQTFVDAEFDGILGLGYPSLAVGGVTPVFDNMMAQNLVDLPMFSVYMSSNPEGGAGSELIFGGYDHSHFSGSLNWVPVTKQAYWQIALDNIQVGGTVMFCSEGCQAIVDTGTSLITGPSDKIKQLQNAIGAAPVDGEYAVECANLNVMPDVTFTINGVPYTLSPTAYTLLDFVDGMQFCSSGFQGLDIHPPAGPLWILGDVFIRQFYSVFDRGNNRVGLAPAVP
# assay summary: Protease digestion of resistin by cathepsin E with HIV-1 protease inhibitors, SDS-PAGE
# Type: biochemical
# condition description: 1 ug alkylated and reduced resistin, 0.1 ug cathepsin E, 24 hr at room temperature
quantity name: inhibition of cleavage of resistin by cathepsin E

smiles_data=Cc1c(O)cccc1C(=O)N[C@@H](CSc1ccccc1)[C@H](O)CN1C[C@H]2CCCC[C@H]2C[C@H]1C(=O)NC(C)(C)C reported_measurement=not
smiles_data=CC(C)(C)NC(=O)[C@@H]1CN(Cc2cccnc2)CCN1C[C@@H](O)C[C@@H](Cc1ccccc1)C(=O)N[C@H]1c2ccccc2C[C@H]1O reported_measurement=not
